Reference source for all entries: patent US20210046071A1

Test: Pharmacokinetic studies in human, Compound I in plasma by LC/MS/MS
Format: in vivo
Details: human, plasma, iv, 325 mg/m2, Group 6, 325 mg/m^2 IV, Day 1, mean, n = 3

smiles-representation | Vd, L
Cc1cnc(CNC(=O)c2c(=O)c3ccc(N4CCCN(C)CC4)nc3n3c2sc2ccccc23)cn1 | 1930

* * *

Experiment: Pharmacokinetic studies in human, Compound I in plasma by LC/MS/MS
Type: in vivo
Conditions: human, plasma, iv, 200 mg/m2, Group 4, 200 mg/m^2 IV, Day 1, mean, n = 4

smiles-representation | Tmax
Cc1cnc(CNC(=O)c2c(=O)c3ccc(N4CCCN(C)CC4)nc3n3c2sc2ccccc23)cn1 | 51.2 min

* * *

Experiment: Pharmacokinetic studies in human, Compound I in plasma by LC/MS/MS
Format: in vivo
Settings: human, plasma, iv, 475 mg/m2, Group 9, 475 mg/m^2 IV, Day 1, mean, n = 5; read-out: T1/2 (converted)

smiles-representation | half-life [h]
Cc1cnc(CNC(=O)c2c(=O)c3ccc(N4CCCN(C)CC4)nc3n3c2sc2ccccc23)cn1 | 61.5

* * *

Assay: Pharmacokinetic studies in human, Compound I in plasma by LC/MS/MS
Format: in vivo
Settings: human, plasma, iv, 200 mg/m2, Group 4, 200 mg/m^2 IV, Day 8, mean, n = 4; read-out: T1/2 (converted)
reported-metric: half-life (h)

smiles-representation | units | quantitative-result
Cc1cnc(CNC(=O)c2c(=O)c3ccc(N4CCCN(C)CC4)nc3n3c2sc2ccccc23)cn1 | h | 53.5

* * *

Assay: Pharmacokinetic studies in human, Compound I in plasma by LC/MS/MS
Type: in vivo
Conditions: human, plasma, iv, 475 mg/m2, Group 9, 475 mg/m^2 IV, Day 15, mean, n = 4

smiles-representation | clearance / mL/min
Cc1cnc(CNC(=O)c2c(=O)c3ccc(N4CCCN(C)CC4)nc3n3c2sc2ccccc23)cn1 | 532

* * *

Assay: Pharmacokinetic studies in human, Compound I in plasma by LC/MS/MS
Format: in vivo
Details: human, plasma, iv, 475 mg/m2, Group 9, 475 mg/m^2 IV, Day 15, mean, n = 5

compound | Tmax, min
Cc1cnc(CNC(=O)c2c(=O)c3ccc(N4CCCN(C)CC4)nc3n3c2sc2ccccc23)cn1 [Compound I] | 44.2

* * *

Assay: Pharmacokinetic studies in human, Compound I in plasma by LC/MS/MS
Type: in vivo
Details: human, plasma, iv, 475 mg/m2, Group 7, 475 mg/m^2 IV, Day 1, mean, n = 3
reported-metric: Cmax (µg/mL)

smiles-representation | units | quantitative-result
Cc1cnc(CNC(=O)c2c(=O)c3ccc(N4CCCN(C)CC4)nc3n3c2sc2ccccc23)cn1 | µg/mL | 1.94

* * *

Assay: Pharmacokinetic studies in human, Compound I in plasma by LC/MS/MS
Format: in vivo
Conditions: human, plasma, iv, 250 mg/m2, Group 5, 250 mg/m^2 IV, Day 8, mean, n = 3

compound | clearance (mL/min)
Cc1cnc(CNC(=O)c2c(=O)c3ccc(N4CCCN(C)CC4)nc3n3c2sc2ccccc23)cn1 [Compound I] | 258

* * *

Assay: Pharmacokinetic studies in human, Compound I in plasma by LC/MS/MS
Assay type: in vivo
Details: human, plasma, iv, 50 mg/m2, Group 1, 50 mg/m^2 IV, Day 8, mean, n = 3

smiles-representation | clearance / mL/min
Cc1cnc(CNC(=O)c2c(=O)c3ccc(N4CCCN(C)CC4)nc3n3c2sc2ccccc23)cn1 | 275

* * *

Experiment: Pharmacokinetic studies in human, Compound I in plasma by LC/MS/MS
Type: in vivo
Conditions: human, plasma, iv, 475 mg/m2, Group 7, 475 mg/m^2 IV, Day 8, mean, n = 3
Method: […] Levels of Compound I in patient's plasma were analyzed by liquid chromatography tandem mass spectrometry (LC/MS/MS) assay. […] The concentrations of Compound I in human plasma samples collected from subjects of as discussed above. Compound I concentrations in plasma samples were measured based on 9 levels of calibration standards from 5.00 to 5000 ng/mL, and 3 levels of QC at 15.0 ng/mL (low), 2500 ng/mL (mid), and 4000 ng/mL (high). […]

smiles-representation | Cmax
Cc1cnc(CNC(=O)c2c(=O)c3ccc(N4CCCN(C)CC4)nc3n3c2sc2ccccc23)cn1 | 1710 ng/mL

* * *

Experiment: Pharmacokinetic studies in human, Compound I in plasma by LC/MS/MS
Format: in vivo
Settings: human, plasma, iv, 100 mg/m2, Group 2, 100 mg/m^2 IV, Day 1, mean, n = 3; read-out: T1/2 (converted)

smiles-representation | half-life, h
Cc1cnc(CNC(=O)c2c(=O)c3ccc(N4CCCN(C)CC4)nc3n3c2sc2ccccc23)cn1 | 37.3

* * *

Assay: Pharmacokinetic studies in human, Compound I in plasma by LC/MS/MS
Type: in vivo
Conditions: human, plasma, intravenous, 200 mg/m2, Groups 1-7, Day 1, range of group means (200 mg/m^2 outlier apart)

compound | Cmax
Cc1cnc(CNC(=O)c2c(=O)c3ccc(N4CCCN(C)CC4)nc3n3c2sc2ccccc23)cn1 [Compound I] | 728 to 1940 ng/mL

* * *

Assay: Pharmacokinetic studies in human, Compound I in plasma by LC/MS/MS
Assay type: in vivo
Conditions: human, plasma, iv, 50 mg/m2, Group 1, 50 mg/m^2 IV, Day 8, mean, n = 3; read-out: AUC∞
reported-metric: AUC(0-inf) (ng·h/mL)

smiles-representation | quantitative-result
Cc1cnc(CNC(=O)c2c(=O)c3ccc(N4CCCN(C)CC4)nc3n3c2sc2ccccc23)cn1 | 9120

* * *

Experiment: Pharmacokinetic studies in human, Compound I in plasma by LC/MS/MS
Type: in vivo
Details: human, plasma, iv, 475 mg/m2, Group 7, 475 mg/m^2 IV, Day 1, mean, n = 3; read-out: AUC∞
reported-metric: AUC(0-inf) (ng·h/mL)

smiles-representation | quantitative-result
Cc1cnc(CNC(=O)c2c(=O)c3ccc(N4CCCN(C)CC4)nc3n3c2sc2ccccc23)cn1 | 36200

* * *

Test: Pharmacokinetic studies in human, Compound I in plasma by LC/MS/MS
Format: in vivo
Conditions: human, plasma, iv, 475 mg/m2, Group 7, 475 mg/m^2 IV, Day 1, mean, n = 3
reported-metric: Tmax (min)

compound | reported-metric | units | quantitative-result
Cc1cnc(CNC(=O)c2c(=O)c3ccc(N4CCCN(C)CC4)nc3n3c2sc2ccccc23)cn1 [Compound I] | Tmax | min | 51.7

* * *

Test: Pharmacokinetic studies in human, Compound I in plasma by LC/MS/MS
Format: in vivo
Settings: human, plasma, iv, 325 mg/m2, Group 6, 325 mg/m^2 IV, Day 8, mean, n = 3
reported-metric: Tmax

compound | reported-metric | result
Cc1cnc(CNC(=O)c2c(=O)c3ccc(N4CCCN(C)CC4)nc3n3c2sc2ccccc23)cn1 [Compound I] | Tmax | 40.3 min

* * *

Test: Pharmacokinetic studies in human, Compound I in plasma by LC/MS/MS
Type: in vivo
Details: human, plasma, iv, 650 mg/m2, Group 10, 650 mg/m^2 IV, Day 1, mean, n = 5
Description: […] Levels of Compound I in patient's plasma were analyzed by liquid chromatography tandem mass spectrometry (LC/MS/MS) assay. […] The concentrations of Compound I in human plasma samples collected from subjects of as discussed above. Compound I concentrations in plasma samples were measured based on 9 levels of calibration standards from 5.00 to 5000 ng/mL, and 3 levels of QC at 15.0 ng/mL (low), 2500 ng/mL (mid), and 4000 ng/mL (high). […]
reported-metric: Tmax (min)

smiles-representation | units | quantitative-result
Cc1cnc(CNC(=O)c2c(=O)c3ccc(N4CCCN(C)CC4)nc3n3c2sc2ccccc23)cn1 | min | 48.6

* * *

Experiment: Pharmacokinetic studies in human, Compound I in plasma by LC/MS/MS
Assay type: in vivo
Settings: human, plasma, iv, 475 mg/m2, Group 9, 475 mg/m^2 IV, Day 1, mean, n = 5

smiles-representation | Vd [L]
Cc1cnc(CNC(=O)c2c(=O)c3ccc(N4CCCN(C)CC4)nc3n3c2sc2ccccc23)cn1 | 2320

* * *

Experiment: Pharmacokinetic studies in human, Compound I in plasma by LC/MS/MS
Type: in vivo
Conditions: human, plasma, iv, 150 mg/m2, Group 3, 150 mg/m^2 IV, Day 1, mean, n = 4

smiles-representation | Cmax [ng/mL]
Cc1cnc(CNC(=O)c2c(=O)c3ccc(N4CCCN(C)CC4)nc3n3c2sc2ccccc23)cn1 | 1230

* * *

Assay: Pharmacokinetic studies in human, Compound I in plasma by LC/MS/MS
Format: in vivo
Conditions: human, plasma, iv, 100 mg/m2, Group 2, 100 mg/m^2 IV, Day 1, mean, n = 3; read-out: AUC∞

smiles-representation | units | AUC(0-inf)
Cc1cnc(CNC(=O)c2c(=O)c3ccc(N4CCCN(C)CC4)nc3n3c2sc2ccccc23)cn1 | ng·h/mL | 6650
